tested on: MCF7; test: Cytotoxicity against human MCF7 cells assessed as cell viability measured after 24 hrs by MTT assay; format: functional, cell-based; settings: MCF7, 24 h
Cut-off 20 µM on IC50: below means yes (1), at or above means no (0).

Example results:
I'd appreciate it if you could check whether `Cc1cc(-c2nc3cc(F)ccc3o2)ccc1NC(=O)CN1CCN(CCCN(C)C)CC1` has IC50 smaller than 20 µM.
yes (1)

I'd appreciate it if you could check whether `Cc1cc(-c2nc3ccccc3o2)ccc1NC(=O)CN1CCN(CCCN(C)C)CC1` has IC50 smaller than 20 µM.
yes (1)

I'd appreciate it if you could check whether `CN(C)CCCN1CCN(CC(=O)Nc2ccc(-c3nc4ccccc4o3)cc2)CC1` has IC50 smaller than 20 µM.
no (0)

Others:
I'd appreciate it if you could check whether `Cc1ccc2oc(-c3ccc(NC(=O)CN4CCN(CCN(C)C)CC4)cc3)nc2c1` has IC50 smaller than 20 µM.
no (0)

I'd appreciate it if you could check whether `Cc1ccc2oc(-c3ccc(NC(=O)CN4CCN(CCCN(C)C)CC4)cc3)nc2c1` has IC50 smaller than 20 µM.
yes (1)
